Would you mind telling me the reported MIC of each entry?
- System: Staphylococcus aureus (Isolate ID ATCC 29213)
- test.summary: Bacterial assay: MIC by broth microdilution or agar dilution (CLSI), S. aureus ATCC 29213
- Assay type: cell-based
- condition.label: Staphylococcus aureus, ATCC29213, read-out: S. aureus MIC (μg/mL) Activity Range, S. aureus (ATCC29213)
- Method: Compounds are tested for antimicrobial activity by susceptibility testing in liquid or on solid media. […] Compound MICs were determined to be in the following activity ranges “A” activity≦0.25 μg/mL; “B” activity>0.25 μg/mL-1.0 μg/mL; “C” activity>1.0 μg/mL-16 μg/mL; “D” activity>16 μg/mL and ND=not determined. […]

Before answering, review these 2 worked examples.
1) NC(=O)c1c(F)ccc(OC(CO)c2nc(-c3ccc(Cl)cc3)c(Cl)o2)c1F (stereo not shown) ... 0.25 to 1 µg/mL
2) CC(C)(C)OC(=O)NCCNC(=O)OCC(Oc1ccc(F)c(C(N)=O)c1F)c1nc(-c2ccc(C(F)(F)F)cc2)c(Br)o1 (stereo not shown) ... < 0.25 µg/mL

Each molecule below has a reported value. Please supply its MIC.
1. CN(C)CCC(Oc1ccc(F)c(C(N)=O)c1F)c1nc(-c2ccc(C(F)(F)F)cc2)c(Br)o1 (stereo not shown)
2. CC(=O)NCC(Oc1ccc(F)c(C(N)=O)c1F)c1nc(-c2ccc(C(F)(F)F)cc2)co1 (stereo not shown)

[out]
1 to 16 µg/mL
> 16 µg/mL
